- system: EZH2 Y646N (PRC2/EZH2^Y646N) (Homo sapiens, UniProt Q15910, Y641N)
- Sequence (Q15910 whole entry Y641N): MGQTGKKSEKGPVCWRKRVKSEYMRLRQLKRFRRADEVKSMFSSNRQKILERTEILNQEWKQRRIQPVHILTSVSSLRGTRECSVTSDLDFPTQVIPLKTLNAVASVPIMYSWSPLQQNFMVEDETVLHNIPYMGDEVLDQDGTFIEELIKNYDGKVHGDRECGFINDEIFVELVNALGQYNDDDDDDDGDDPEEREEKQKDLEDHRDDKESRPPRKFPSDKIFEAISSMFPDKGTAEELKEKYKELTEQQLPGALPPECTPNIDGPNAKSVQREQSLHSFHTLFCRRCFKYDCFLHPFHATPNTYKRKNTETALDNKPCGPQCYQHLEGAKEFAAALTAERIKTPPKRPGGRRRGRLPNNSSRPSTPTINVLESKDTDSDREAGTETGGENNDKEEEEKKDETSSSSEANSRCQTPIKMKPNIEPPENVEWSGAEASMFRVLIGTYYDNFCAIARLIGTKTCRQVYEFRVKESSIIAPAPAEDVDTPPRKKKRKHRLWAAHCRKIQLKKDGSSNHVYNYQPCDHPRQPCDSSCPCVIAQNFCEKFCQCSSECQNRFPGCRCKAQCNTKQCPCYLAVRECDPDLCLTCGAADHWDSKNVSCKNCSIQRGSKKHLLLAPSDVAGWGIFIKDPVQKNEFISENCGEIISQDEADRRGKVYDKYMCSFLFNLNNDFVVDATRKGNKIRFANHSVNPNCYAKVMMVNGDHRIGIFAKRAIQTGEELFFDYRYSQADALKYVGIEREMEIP
- Sequence (O75530 2-441 partner): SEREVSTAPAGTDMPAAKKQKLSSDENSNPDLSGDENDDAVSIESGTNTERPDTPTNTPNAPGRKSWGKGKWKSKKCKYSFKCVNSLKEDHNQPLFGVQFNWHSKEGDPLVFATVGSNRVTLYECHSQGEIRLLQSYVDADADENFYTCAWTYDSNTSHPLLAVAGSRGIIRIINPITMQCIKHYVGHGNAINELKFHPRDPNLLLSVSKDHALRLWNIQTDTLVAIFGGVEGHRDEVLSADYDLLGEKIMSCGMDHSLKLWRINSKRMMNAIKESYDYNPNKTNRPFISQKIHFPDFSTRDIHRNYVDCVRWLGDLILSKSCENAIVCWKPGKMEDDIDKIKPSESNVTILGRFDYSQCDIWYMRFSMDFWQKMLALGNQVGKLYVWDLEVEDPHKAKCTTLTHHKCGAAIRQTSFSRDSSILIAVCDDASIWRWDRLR
- Sequence (Q15022 whole entry partner): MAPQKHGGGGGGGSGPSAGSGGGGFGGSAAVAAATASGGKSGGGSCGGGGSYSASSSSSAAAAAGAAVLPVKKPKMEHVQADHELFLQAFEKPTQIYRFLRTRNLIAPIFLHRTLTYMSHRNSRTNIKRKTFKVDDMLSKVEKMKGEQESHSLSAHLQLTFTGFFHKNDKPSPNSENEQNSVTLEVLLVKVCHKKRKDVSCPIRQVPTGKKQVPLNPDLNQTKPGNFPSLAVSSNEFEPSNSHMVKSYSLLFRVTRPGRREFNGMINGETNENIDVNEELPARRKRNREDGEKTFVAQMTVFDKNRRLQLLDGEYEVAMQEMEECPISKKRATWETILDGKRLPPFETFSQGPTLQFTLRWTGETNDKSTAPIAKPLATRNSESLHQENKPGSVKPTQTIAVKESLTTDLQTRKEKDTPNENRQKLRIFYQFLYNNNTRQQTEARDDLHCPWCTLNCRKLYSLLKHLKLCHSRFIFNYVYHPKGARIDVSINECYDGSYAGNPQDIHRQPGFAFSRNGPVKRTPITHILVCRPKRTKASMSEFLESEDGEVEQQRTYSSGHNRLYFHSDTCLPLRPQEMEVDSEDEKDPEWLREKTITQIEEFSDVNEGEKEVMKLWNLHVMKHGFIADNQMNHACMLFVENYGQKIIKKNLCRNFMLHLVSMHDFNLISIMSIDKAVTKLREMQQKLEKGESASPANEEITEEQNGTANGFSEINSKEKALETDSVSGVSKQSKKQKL
- Sequence (Q09028 2-425 partner): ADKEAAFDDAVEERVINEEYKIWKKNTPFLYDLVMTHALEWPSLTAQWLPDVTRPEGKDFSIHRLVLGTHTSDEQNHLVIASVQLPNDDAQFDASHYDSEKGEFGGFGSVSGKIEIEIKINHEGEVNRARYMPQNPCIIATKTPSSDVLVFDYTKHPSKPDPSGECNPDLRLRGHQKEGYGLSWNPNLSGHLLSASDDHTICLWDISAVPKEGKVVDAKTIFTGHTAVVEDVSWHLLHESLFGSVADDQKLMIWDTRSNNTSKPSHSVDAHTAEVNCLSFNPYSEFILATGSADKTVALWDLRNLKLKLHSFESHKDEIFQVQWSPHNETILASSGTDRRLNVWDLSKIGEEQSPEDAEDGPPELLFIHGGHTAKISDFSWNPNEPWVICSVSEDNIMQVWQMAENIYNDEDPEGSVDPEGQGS
pIC50: −log10 of the molar value.
measured.parameter: pIC50

COC(=O)c1ccc(NC(=O)c2ccc(NC(=O)c3ccc([N+](=O)[O-])c(OCc4ccccc4)n3)c(OCc3ccccc3)n2)c(OCCCN)n1 = 6.05
